Ki values recorded for Sodium-dependent serotonin transporter (Rattus norvegicus)

stdin: Tell me Ki reported for "COC(=O)[C@H](c1ccc(F)cc1)[C@@H]1CCCCN1"
stdout: > 10 µM

I'm hoping you can list Ki for every compound here, please.
1. CCCCN1CCCC[C@H]1[C@H](COC)c1ccccc1
2. COC(=O)[C@H](c1cccc(Cl)c1)[C@@H]1CCCCN1
3. CCCCN1CCCC[C@H]1[C@H](CO)c1ccccc1

stdout:
1. 0.166 µM
2. > 10 µM
3. 0.204 µM

---

# Ki per entry for Sodium-dependent serotonin transporter (Rattus norvegicus, UniProt P31652)

Guide cases for Ki, answers given:
stdin: Check Sodium-dependent serotonin transporter (Rattus norvegicus, UniProt P31652) data and give Ki for "COC(=O)[C@H](c1ccccc1)[C@@H]1CCCCN1C" .
stdout: > 10 µM

stdin: Specify the recorded Ki for "COC(=O)[C@H](c1ccccc1)[C@@H]1CCCCN1" , system: Sodium-dependent serotonin transporter (Rattus norvegicus, UniProt P31652).
Sequence (P31652 whole entry): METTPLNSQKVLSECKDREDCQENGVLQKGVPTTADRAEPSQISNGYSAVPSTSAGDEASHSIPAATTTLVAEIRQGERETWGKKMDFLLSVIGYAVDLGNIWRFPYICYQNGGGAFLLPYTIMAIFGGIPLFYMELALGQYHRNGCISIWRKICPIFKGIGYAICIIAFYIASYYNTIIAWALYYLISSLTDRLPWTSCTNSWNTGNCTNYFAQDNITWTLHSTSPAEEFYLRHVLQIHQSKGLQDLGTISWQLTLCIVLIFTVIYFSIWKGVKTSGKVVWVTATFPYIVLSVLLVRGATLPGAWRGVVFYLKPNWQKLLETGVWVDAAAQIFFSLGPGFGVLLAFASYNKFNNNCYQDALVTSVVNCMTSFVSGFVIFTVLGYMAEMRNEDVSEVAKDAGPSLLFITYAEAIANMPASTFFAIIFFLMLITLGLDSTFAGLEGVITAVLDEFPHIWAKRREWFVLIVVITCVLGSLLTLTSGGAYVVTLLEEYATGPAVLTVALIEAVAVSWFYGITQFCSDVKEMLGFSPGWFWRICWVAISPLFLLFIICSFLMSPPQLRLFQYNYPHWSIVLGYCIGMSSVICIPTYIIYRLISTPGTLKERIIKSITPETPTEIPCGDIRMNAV
stdout: > 10 µM

stdin: // output Ki; input "COC(=O)[C@H](c1ccc(C)cc1)[C@@H]1CCCCN1C" ; system Sodium-dependent serotonin transporter (Rattus norvegicus, UniProt P31652)
stdout: 1.11 µM

stdin: State the measured Ki (Sodium-dependent serotonin transporter (Rattus norvegicus, UniProt P31652)) of "COC(=O)[C@H](c1ccc(C)cc1)[C@@H]1CCCCN1"
stdout: > 10 µM

stdin: Provide Ki, tested on Sodium-dependent serotonin transporter (Rattus norvegicus, UniProt P31652), for "COC(=O)[C@H](c1cccc(Cl)c1)[C@@H]1CCCCN1C" .
stdout: > 10 µM

---
stdin: Print Sodium-dependent serotonin transporter (Rattus norvegicus, UniProt P31652) Ki for "COC(=O)[C@H](c1ccc(N)cc1)[C@@H]1CCCCN1" .
stdout: > 10 µM

Where these numbers come from: BindingDB's records for doi:10.1124/jpet.301.2.527
